system_under_test: T1, human Activin A (R&D Systems) (human, UniProt P08476 311-426)
T1 sequence (looked up): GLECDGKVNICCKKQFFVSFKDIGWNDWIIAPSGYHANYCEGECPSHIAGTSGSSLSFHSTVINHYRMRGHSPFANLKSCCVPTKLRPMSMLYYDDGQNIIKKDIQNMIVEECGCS
method_summary: cell-based or functional assay
experimental_endpoint: ARE-luciferase IC50

>>> reading("2523_G06 (designed binder) MGVSDVPRDLEVVAATPTSLLISWWAPLGLARYYRITYGETGGNSPVQEFTVPGRGSTATISGLKPGVDYTITVYAVTIFRTGMVQYDPISINYRTEIDKPSQHHHHHH")
"> 2000 nM"
>>> reading("3116_A07 (designed binder) MGVSDVPRDLEVVAATPTSLLISWDAPKGLARYYRITYGETGGNSPVQEFTVVGRGNTATISGLKPGVDYTITVYAVTIFRDGPVTWDPISINYRTEIDKPSQHHHHHH")
"> 1000 nM"
>>> reading("2524_E10 (designed binder) MGVSDVPRDLEVVAATPTSLLISWSLPFAGHLNYYRITYGETGGNSPVQEFTVPGRGVTATISGLKPGVDYTITVYAVTLTRSKIIHYMPISINYRTEIDKPSQHHHHHH")
"> 1000 nM"
>>> reading("2062_G02 (designed binder, also called ATI-1134) MGVSDVPRDLEVVAATPTSLLISWVSPRGRARYYRITYGETGGNSPVQEFTVPGRGSTATISGLKPGVDYTITVYAVTIYRDGMSHHDPISINYRTEIDKPSQHHHHHH")
"> 1500 nM"
>>> reading("3116_A06 (designed binder, also called WT parent) MGVSDVPRDLEVVAATPTSLLISWSLPHQGKANYYRITYGETGGNSPVQEFTVPGRGVTATISGLKPGVDYTITVYAVTVTDTGYLKYKPISINYRTEIDKPSQHHHHHH")
"> 1000 nM"
>>> reading("3116_C06 (designed binder) MGVSDVPRDLEVVAATPTSLLISWSLPRPGNAHYYRITYGETGGNSPVQEFTVPGRGVTATISGLKPGVDYTITVYAVTVTGKDVIKYKPISINYRTEIDKPSQHHHHHH")
"> 1000 nM"
>>> reading("3008_F01 (designed binder) MGVSDVPRDLEVVAATPTSLLISWSLPRQGLANYYRITYGETGGNSPVQEFTVPGRGVTATISGLKPGVDYTITVYAVTVTAAGVIIYKPISINYRTEIDKPSQHHHHHH")
"> 2000 nM"
>>> reading("2987_H07 (designed binder) MGVSDVPRDLEVVAATPTSLLISWTLPHAGRAHYYRITYGETGGNSPVQEFTVPGRGVTATISGLKPGVDYTITVYAVTVTTTKVIHYKPISINYRTEIDKPSQHHHHHH")
"> 400 nM"
>>> reading("3116_H06 (designed binder) MGVSDVPRDLEVVAATPTSLLISWDAPAGLARYYRITYGETGGNSPVQEFTVVGRGNTATISGLKPGVDYTITVYAVTIFRDGVVNYGPISINYRTEIDKPSQHHHHHH")
"> 1000 nM"
